Source of measurements: patent US11174268B2

# Subject Of Test: NaV1.6 (Homo sapiens (Human), UniProt Q9UQD0)
# Sequence (Q9UQD0 whole entry): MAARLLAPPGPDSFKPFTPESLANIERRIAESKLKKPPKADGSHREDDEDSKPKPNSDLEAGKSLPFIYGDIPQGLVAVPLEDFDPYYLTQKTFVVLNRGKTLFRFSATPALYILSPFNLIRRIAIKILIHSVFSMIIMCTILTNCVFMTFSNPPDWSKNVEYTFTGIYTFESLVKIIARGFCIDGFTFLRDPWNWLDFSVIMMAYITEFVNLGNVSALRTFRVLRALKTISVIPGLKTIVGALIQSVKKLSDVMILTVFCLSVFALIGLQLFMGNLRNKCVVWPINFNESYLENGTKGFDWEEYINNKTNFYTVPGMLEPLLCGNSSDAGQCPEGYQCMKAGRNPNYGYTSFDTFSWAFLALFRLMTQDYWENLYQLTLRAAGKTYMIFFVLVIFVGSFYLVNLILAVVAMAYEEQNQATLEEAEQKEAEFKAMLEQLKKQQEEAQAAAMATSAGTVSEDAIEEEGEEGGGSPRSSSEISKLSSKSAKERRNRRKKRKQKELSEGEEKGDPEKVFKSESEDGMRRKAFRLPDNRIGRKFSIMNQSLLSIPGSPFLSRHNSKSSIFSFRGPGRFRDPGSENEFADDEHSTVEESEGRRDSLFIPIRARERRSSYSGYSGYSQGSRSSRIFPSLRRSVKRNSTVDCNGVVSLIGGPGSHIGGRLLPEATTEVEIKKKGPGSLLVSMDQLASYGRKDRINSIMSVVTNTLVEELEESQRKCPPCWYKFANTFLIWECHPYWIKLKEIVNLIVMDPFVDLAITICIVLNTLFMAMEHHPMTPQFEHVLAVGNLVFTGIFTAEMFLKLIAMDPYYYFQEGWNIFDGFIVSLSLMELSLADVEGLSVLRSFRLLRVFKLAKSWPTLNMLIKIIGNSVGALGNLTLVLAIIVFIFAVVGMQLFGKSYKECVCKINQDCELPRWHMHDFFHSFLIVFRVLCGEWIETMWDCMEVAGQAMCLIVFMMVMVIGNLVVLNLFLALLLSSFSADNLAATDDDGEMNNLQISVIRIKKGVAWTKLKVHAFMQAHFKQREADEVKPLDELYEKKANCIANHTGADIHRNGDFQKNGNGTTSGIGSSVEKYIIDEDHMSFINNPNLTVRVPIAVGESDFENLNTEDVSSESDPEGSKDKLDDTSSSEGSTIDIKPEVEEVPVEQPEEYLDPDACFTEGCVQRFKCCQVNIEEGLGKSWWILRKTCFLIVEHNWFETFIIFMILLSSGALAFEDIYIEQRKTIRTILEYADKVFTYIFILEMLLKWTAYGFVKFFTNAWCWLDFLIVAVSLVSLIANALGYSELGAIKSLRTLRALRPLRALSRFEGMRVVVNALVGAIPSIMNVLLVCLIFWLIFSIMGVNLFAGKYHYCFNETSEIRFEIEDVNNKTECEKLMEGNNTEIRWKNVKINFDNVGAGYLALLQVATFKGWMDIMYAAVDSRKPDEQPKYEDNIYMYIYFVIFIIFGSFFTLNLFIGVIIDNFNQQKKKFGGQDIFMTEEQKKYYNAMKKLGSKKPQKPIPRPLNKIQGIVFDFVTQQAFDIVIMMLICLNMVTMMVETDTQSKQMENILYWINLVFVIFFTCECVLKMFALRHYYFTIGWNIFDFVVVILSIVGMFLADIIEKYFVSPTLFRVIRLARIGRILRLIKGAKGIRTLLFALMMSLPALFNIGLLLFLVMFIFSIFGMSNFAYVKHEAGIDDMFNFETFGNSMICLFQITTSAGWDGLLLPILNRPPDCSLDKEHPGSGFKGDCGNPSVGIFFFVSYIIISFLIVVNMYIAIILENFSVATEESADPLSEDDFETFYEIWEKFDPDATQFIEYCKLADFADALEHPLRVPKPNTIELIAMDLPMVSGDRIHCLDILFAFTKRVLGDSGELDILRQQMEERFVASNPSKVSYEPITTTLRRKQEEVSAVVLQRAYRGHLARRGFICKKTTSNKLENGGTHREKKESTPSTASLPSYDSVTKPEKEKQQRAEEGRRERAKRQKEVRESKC
# Assay Comment: Electrophysiological Assay (EP), patch voltage clamp, NaV1.6;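 also: sodium current recorded at ambient temperature, channels held inactivated then briefly repolarized to −150 mV for 20 ms before a test pulse, control currents in 0.5% DMSO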
# Assay type: cell-based
# Study Conditions: HEK-293 cells, whole-cell patch clamp
Where a name gives a salt, the structure may show the parent alone.
Readout Name: IC50 (nM)

In [3]: df
Out[3]:
                                   compound  readout_name  endpoint_value
0  C[C@H](Nc1cc(F)c(S(=O)(=O)Nc2ccncn2)c(F)c1)c1cc(Cl)ccc1F [Example 206, 2,2,2-trifluoroacetate]          IC50              76

[1] O=S(=O)(Nc1nccs1)c1cc(Cl)c(NC2(c3ccccc3)CCC2)cc1F
[2] C[C@H](Nc1cc(F)c(S(=O)(=O)Nc2cnccn2)cc1Cl)c1cc(Cl)ccc1F
[3] O=S(=O)(Nc1cccnn1)c1c(F)cc(NCc2c(F)cccc2CN2CCC2)cc1F [Example 333, formate]
[4] O=S(=O)(Nc1nccs1)c1ccc(N[C@H](c2ccccc2)C(F)(F)F)c(Cl)c1 [Example 4, formate]
Problem: // ascending sort on recorded IC50 Please, when replying, give the labels in the order that was requested.
Solution: 1, 4, 3, 2
(1: 27 nM, 4: 41 nM, 3: 186 nM, 2: 6250 nM)

====

# Subject Of Test: NaV1.1 (Homo sapiens (Human))
# Assay Comment: Sodium Influx Assay (Flux), NaV1.1;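 also: channels co-expressed with human β1 subunit and held open by modulators, cells exposed to compounds for one hour at room temperature, IC50 from percent inhibition of influx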
# Format: cell-based
# Study Conditions: Trex HEK293 cells, ANG2 dye, inactivated state
pIC50: −log10 of the molar value.
Readout Name: pIC50

Worked examples follow.
In [3]: df
Out[3]:
                                   compound  readout_name  endpoint_value
0  C[C@H](Nc1cc(F)c(S(=O)(=O)Nc2nccs2)cc1Cl)c1ccc(F)c(F)c1 [Example 53]         pIC50            6.14
1  CC(C)N(C)Cc1cccc(F)c1CNc1cc(F)c(S(=O)(=O)Nc2ccon2)c(F)c1 [Example 201, 2,2,2-trifluoroacetate]         pIC50            4.52

[I] O=S(=O)(Nc1cscn1)c1cc(Cl)c(NCc2c(F)cccc2CN2CCC(F)(F)CC2)cc1F [Example 251]
[II] O=S(=O)(Nc1nccs1)c1cc(Cl)c(NC2(c3ccccc3F)CC2)cc1F [Example 220]
Problem: Between I and II , whose measured pIC50 reads higher? Pick one; state its label.
Solution: II

====

# Subject Of Test: NaV1.6 (Homo sapiens (Human), UniProt Q9UQD0)
# Assay Comment: Sodium Influx Assay (Flux), NaV1.6;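 also: Tetracycline-induced cells, compounds applied for one hour at room temperature with modulators holding channels open, IC50 from percent inhibition of sodium influx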
# Type: cell-based
# Study Conditions: Trex HEK293 cells, ANG2 dye, inactivated state
Counter-ions that a name gives are not always drawn.
Readout Name: IC50 (nM)

// known answers, use as guide
>>> print(df.to_string())
                                   compound  readout_unit  endpoint_value
0  Cc1ccc(F)cc1CNc1cc(F)c(S(=O)(=O)Nc2cscn2)cc1Cl            nM            3310
1  C[C@H](Nc1ccc(S(=O)(=O)Nc2ccncn2)c(F)c1Cl)c1ccccc1Cl            nM             244
2  O=S(=O)(Nc1cscn1)c1c(F)cc(NCc2c(F)ccc(F)c2CN2CCC2)cc1F            nM             126

[P] CN(Cc1cccc(F)c1CNc1cc(F)c(S(=O)(=O)Nc2cscn2)c(F)c1)CC1(C)COC1 [Example 167, formate]
[Q] Cc1cc(S(=O)(=O)Nc2cccc(F)n2)c(F)cc1NCc1ccccc1CN1CCC1
Problem: Response body: label of entry with the larger IC50; valid values P , Q . State your choice using its label.
Solution: P
(P: 405 nM, Q: 214 nM)

[P] O=S(=O)(Nc1ccon1)c1c(F)cc(NCc2ccccc2CN2CCC2)cc1F
[Q] O=S(=O)(Nc1nccs1)c1cc(Cl)c(OCc2cccc3ccncc23)cc1F
Problem: # return whichever of P and Q has the smaller IC50 Pick one; state its label.
Solution: Q
(Q: 255 nM, P: 1370 nM)
